SYSTEM UNDER TEST: PI3Kα (p110α/p85α) (Homo sapiens, UniProt P42336)
Sequence (P42336 whole entry): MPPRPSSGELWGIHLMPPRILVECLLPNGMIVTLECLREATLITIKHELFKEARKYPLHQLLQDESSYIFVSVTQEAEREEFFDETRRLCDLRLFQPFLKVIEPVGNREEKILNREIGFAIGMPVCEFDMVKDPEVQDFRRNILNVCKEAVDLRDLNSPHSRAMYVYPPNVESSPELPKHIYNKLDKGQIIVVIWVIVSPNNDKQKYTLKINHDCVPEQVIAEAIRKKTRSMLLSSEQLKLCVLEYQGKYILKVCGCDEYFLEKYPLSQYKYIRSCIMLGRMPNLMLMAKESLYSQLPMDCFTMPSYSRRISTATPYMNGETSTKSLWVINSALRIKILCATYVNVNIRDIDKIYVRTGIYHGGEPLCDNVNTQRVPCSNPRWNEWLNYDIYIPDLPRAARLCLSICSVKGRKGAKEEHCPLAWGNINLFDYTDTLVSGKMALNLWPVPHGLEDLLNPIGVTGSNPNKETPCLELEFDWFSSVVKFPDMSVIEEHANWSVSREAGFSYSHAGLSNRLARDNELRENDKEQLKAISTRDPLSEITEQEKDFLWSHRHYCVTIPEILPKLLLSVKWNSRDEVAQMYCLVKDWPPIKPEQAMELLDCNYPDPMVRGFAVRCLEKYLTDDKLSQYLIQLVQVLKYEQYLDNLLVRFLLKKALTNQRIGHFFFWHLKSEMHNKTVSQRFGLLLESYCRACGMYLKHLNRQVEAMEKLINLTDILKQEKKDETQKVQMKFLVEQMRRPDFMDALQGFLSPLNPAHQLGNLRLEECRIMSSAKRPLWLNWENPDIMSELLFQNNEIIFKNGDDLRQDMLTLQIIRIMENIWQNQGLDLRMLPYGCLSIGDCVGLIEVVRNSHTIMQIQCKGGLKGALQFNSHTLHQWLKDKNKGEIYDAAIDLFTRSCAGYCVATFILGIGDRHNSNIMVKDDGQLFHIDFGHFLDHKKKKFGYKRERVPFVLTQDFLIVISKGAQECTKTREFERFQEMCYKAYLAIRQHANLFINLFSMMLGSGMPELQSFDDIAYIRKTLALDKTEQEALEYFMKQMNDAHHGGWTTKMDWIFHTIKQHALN
Sequence (P27986 whole entry partner): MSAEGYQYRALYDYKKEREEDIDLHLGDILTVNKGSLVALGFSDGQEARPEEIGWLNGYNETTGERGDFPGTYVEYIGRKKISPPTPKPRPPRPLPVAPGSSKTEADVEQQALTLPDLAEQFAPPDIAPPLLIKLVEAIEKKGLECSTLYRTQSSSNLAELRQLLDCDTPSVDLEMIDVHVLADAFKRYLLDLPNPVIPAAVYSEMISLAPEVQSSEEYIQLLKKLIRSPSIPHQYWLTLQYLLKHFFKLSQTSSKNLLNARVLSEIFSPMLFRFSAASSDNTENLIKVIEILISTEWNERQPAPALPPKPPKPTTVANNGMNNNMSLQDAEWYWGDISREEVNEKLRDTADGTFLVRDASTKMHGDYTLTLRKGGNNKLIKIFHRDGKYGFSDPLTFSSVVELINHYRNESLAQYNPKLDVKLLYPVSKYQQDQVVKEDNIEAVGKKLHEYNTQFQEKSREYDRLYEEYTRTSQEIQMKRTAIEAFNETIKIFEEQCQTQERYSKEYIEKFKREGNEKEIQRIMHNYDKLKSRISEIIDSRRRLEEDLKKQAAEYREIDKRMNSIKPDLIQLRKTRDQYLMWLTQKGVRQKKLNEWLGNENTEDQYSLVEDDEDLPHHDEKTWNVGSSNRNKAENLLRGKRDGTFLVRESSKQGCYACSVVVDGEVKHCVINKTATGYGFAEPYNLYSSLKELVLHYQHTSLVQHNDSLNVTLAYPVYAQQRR
EXPERIMENT NOTES: HTRF assay, potency against active PI3Kα
CONDITION DETAILS: [ATP]=50 μM, read-out: PI3Kα Inhibition
Measured IC50 values are reported for all entries that follow.

Q: Please give the documented IC50 of "CC(C)/C(=C/C(=O)Nc1ccc(CC(=O)N2CC=C(c3cc(-c4cnc(N)nc4)nc(N4CCOCC4)c3)CC2)cc1)C(F)(F)F"
Result: 10 to 100 nM

Q: Name the recorded IC50 of the compound listed here: "C/C(=C\C(=O)Nc1ccc(CC(=O)N2CC=C(c3cc(-c4cnc(N)nc4)nc(N4CCOCC4)c3)CC2)cc1)C(F)(F)F"
Result: 100 to 1000 nM

====

pIC50 values for the compounds below.
SYSTEM UNDER TEST: PI3Kα (p110α/p85α) (Homo sapiens, UniProt P42336)
EXPERIMENT NOTES: HTRF assay, potency against active PI3Kα
CONDITION DETAILS: [ATP]=50 μM, read-out: PI3Kα Inhibition
pIC50: −log10 of the molar value.

CC(C)/C(=C/C(=O)Nc1ccc(CC(=O)N2CCN(c3cc(-c4cnc(N)nc4)nc(N4CCOCC4)c3)CC2)cc1)C(F)(F)F [I-16]; 7.00 to 8.00
CC(C)=CC(=O)CCC(=O)Nc1ccc(C#Cc2cc(-c3cnc(N)nc3)nc(N3CCOCC3)c2)cc1 [I-2]; 7.00 to 8.00
C/C=C/C(=O)Nc1ccc(CC(=O)N2CC=C(c3cc(-c4cnc(N)nc4)nc(N4CCOCC4)c3)CC2)cc1 [I-3]; 6.00 to 7.00

Pending compound:
Q: Using the record for C/C(=C/C(=O)Nc1ccc(CC(=O)N2CCN(c3cc(-c4cnc(N)nc4)nc(N4CCOCC4)c3)CC2)cc1)C(F)(F)F [I-14] , state its measured pIC50.
Result: 6.00 to 7.00

====

SYSTEM UNDER TEST: PI3Kα (p110α/p85α) (Homo sapiens)
EXPERIMENT NOTES: HTRF assay, potency against active PI3Kα
CONDITION DETAILS: [ATP]=50 μM, read-out: PI3Kα Inhibition
RECORDED ENDPOINT: IC50

Here are 4 compounds together with their reported answers.
Nc1ncc(-c2cc(N3CCN(C(=O)Cc4ccc(NC(=O)/C=C(\C5CC5)C(F)(F)F)cc4)CC3)cc(N3CCOCC3)n2)cn1 [I-11]; 10 to 100 nM
C=CC(=O)Nc1ccc2sc(N3CCN(c4cc(-c5cnc(N)nc5)nc(N5CCOCC5)c4)CC3)nc2c1 [I-17]; 10 to 100 nM
CC(C)/C(=C\C(=O)Nc1ccc(CC(=O)N2CC=C(c3cc(-c4cnc(N)nc4)nc(N4CCOCC4)c3)CC2)cc1)C(F)(F)F [I-8]; 100 to 1000 nM
C/C(=C\C(=O)Nc1ccc(CC(=O)N2CCN(c3cc(-c4cnc(N)nc4)nc(N4CCOCC4)c3)CC2)cc1)C(F)(F)F [I-13]; 100 to 1000 nM

Alright, here's another compound for you.
Q: Give me measured IC50, please, for this compound: Nc1ncc(-c2cc(C3=CCN(C(=O)Cc4ccc(NC(=O)/C=C(\C5CC5)C(F)(F)F)cc4)CC3)cc(N3CCOCC3)n2)cn1 [I-4]
Result: 10 to 100 nM
